Assay: folding stability dG unfold from chymotrypsin proteolysis; higher = more stable
REPORTED_PROPERTY: folding stability dG unfold

[[record]]
sequence_entry = "SAGGPNLYIFIKIEHKGQTVTFMYPVPPGNLEKLVDEIASMGFPEIKIEEIYIFPPNGWIPVTVRLPSAGGS [r8_219_TrROS]"
reported_property = "folding stability dG unfold"
value = "3.71 kcal/mol"

[[record]]
sequence_entry = "SAGGSAGGSAMLIVGGADPEGAAEAAEEFIAAIEKAAEELGIPPEHIEIPVLIAEPGEAPGSAGGSAGGSAG [r3_249_TrMRF]"
reported_property = "folding stability dG unfold"
value = "0.289 kcal/mol"

[[record]]
sequence_entry = "SAGGSAGGMLVPLDDTRVVPLPDGSYAVLVRPADGSELLREFDSLEDAVEWAEATGAGVADLPASAGGSAGG [r6_84_TrMRF]"
reported_property = "folding stability dG unfold"
value = "0.0582 kcal/mol"


Now let's try a different one.
Looking up SAGGSMTTITLTLEFELDENGEVDPEKIEAEAEKIKEENPEIKELTVEVKRDPNSNKITVTVTAKVPSAGGS [r8_258_JUSTAS] , I see its folding stability dG unfold listed as 3.29 kcal/mol
